- CONDITION DESCRIPTION: in ethanol, 288.15 K
QUANTITY KIND: solubility (mole fraction)
Output spec: single numeric token, no unit.

INPUT: Fill blank: measured solubility (mole fraction) of the compound Cc1ccc(CO)cc1 is ____.
OUTPUT: 0.327

---

- CONDITION DESCRIPTION: in n-butanol, 298.15 K
QUANTITY KIND: solubility (mole fraction)
Returns: the value as a bare number; no unit string appended.

INPUT: I'd like to know its solubility (mole fraction). The compound in question is Cc1ccc(CO)cc1
OUTPUT: 0.45

---

- CONDITION DESCRIPTION: in acetone, 293.15 K
QUANTITY KIND: solubility (mole fraction)
Just the number, please, no unit attached.

INPUT: // returns reported solubility (mole fraction) for input Cc1ccc(CO)cc1
OUTPUT: 0.384
